System: MCH58 fibroblasts
experimentalProtocol: Glucose versus galactose cell growth screen (metabolic state-dependent lethality)
experimentalParameters: approximately 10 μM compound, 72 hours; log10 fold change of normalized cell number in glucose versus galactose
Structures can show the parent of a compound that is named as a salt.
quantityKind: Sglu/gal (log10 fold change) Score

# Sglu/gal (log10 fold change) Score measured on MCH58 fibroblasts for item CCN(CC)CCCC(C)Nc1c2ccc(Cl)cc2nc2ccc(OC)cc12 (stereo not drawn) [quinacrine hydrochloride] = −0.30

# Sglu/gal (log10 fold change) Score measured on MCH58 fibroblasts for item `CC(=O)O[C@H]1C(=O)[C@@]2(C)[C@H]([C@H](OC(=O)c3ccccc3)[C@]3(O)C[C@H](OC(=O)[C@H](O)[C@@H](NC(=O)c4ccccc4)c4ccccc4)C(C)=C1C3(C)C)[C@]1(OC(C)=O)CO[C@@H]1C[C@@H]2O` = −0.22

# Sglu/gal (log10 fold change) Score measured on MCH58 fibroblasts for item `CC1(C)C(=O)C=C[C@@]2(C)C1=C(O)C(=O)[C@]1(C)[C@@H]2CC[C@@]2(C)[C@H](c3ccoc3)C[C@H]3O[C@]321` = −0.22

Sourced from patent US9399032B2
